Biological target: ヒ卜PAD4(Cayman Chemical company、Cat. 10500) (human) (UniProt Q9UM07)
Sequence (Q9UM07 whole entry): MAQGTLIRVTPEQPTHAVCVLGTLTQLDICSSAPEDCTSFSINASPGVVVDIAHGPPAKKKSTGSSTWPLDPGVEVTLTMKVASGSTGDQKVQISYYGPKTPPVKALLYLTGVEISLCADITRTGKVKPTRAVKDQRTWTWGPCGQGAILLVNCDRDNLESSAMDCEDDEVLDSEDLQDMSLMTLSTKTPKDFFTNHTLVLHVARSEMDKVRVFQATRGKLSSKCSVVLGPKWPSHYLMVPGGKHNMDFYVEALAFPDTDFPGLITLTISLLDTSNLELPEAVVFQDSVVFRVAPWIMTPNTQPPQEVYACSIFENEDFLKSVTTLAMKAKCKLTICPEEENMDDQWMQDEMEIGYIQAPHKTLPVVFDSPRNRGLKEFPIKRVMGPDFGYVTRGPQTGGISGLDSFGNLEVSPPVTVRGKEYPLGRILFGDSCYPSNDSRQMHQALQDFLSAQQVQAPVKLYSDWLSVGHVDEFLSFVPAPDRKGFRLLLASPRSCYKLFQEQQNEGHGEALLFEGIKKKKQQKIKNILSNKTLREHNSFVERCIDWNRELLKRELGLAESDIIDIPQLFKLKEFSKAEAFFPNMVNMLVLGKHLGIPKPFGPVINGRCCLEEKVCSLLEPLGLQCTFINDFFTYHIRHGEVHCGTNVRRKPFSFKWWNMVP
Experiment: SPR Biacore T200, stored antibody captured on Protein A chip, human PAD4 at 50 nM as analyte
quantity: 抗原結合活性 (relative antigen binding after 40℃ for 4 weeks against 4℃ for 4 weeks)

Take a look at these entries with their results.
binder	reported-measurement
抗PAD4抗体2-1-47 (antibody, human IgG1, lambda, V domains shown) VH: EVQLLESGGGLVQPGGSLRLSCAASGFTFSTYAMGWVRQAPGKGLEFVAAIRNDGSWTGYGTPYKTRFTISRDNSKNTLYLQMSSLRAEDTAVYYCAKYTGSSGGSIGAWGQGTLVTVSS VL: SYELTQPPSVSVSPGQTARITCSGGNRNYYYGWYQQKPGQAPVTVIYANDKRPSGIPERFSGSNSGSTTTLTISGVQAEDEADYYCGTATTGKYVFGGGTKLTVLG	> 90%
抗PAD4抗体3-2-37 (antibody, human IgG1, lambda, V domains shown) VH: EVQLLESGGGLVQPGGSLRLSCAASGFTFSTYAMGWVRQAPGKGLEFVAAIRNDGSWTGIGYNQKSRFTISRDNSKNTLYLQMSSLRAEDTAVYYCGKYTGSSGGSIGAWGQGTLVTVSS VL: SYELTQPPSVSVSPGQTARITCSGGNRNYYYGWYQQKPGQAPVTVIYANDKRPSGIPERFSGSNSGSTTTLTISGVQAEDEADYYCGTALTGKYVFGGGTKLTVLG	> 90%
抗PAD4抗体3-1-39 (antibody, human IgG1, lambda, V domains shown) VH: EVQLLESGGGLVQPGGSLRLSCAASGFTFSTYAMGWVRQAPGKGLEFVAAIRNDGSWTGTSVNAKTRFTISRDNSKNTLYLQMSSLRAEDTAVYYCAKYTGSSGGSIGAWGQGTLVTVSS VL: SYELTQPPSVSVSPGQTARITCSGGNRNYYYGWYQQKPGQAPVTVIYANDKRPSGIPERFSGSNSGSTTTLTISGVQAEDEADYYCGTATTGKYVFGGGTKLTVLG	> 90%

Bench note: what 抗原結合活性 (relative antigen binding after 40℃ for 4 weeks against 4℃ for 4 weeks) did 抗PAD4抗体4-2-25 (antibody, human IgG1, lambda, V domains shown) VH: EVQLLESGGGLVQPGGSLRLSCAASGFTFSTYAMGWVRQAPGKGLEFVAAIRNDGSWTGYPPPLKGRFTISRDNSKNTLYLQMSSLRAEDTAVYYCAKYTGSSGGSIGAWGQGTLVTVSS VL: SYELTQPPSVSVSPGQTARITCSGGNRNYYYGWYQQKPGQAPVTVIYANDKRPSGIPERFSGSNSGSTTTLTISGVQAEDEADYYCGTAYTGKYVFGGGTKLTVLG show?
> 90%
